Listed next: entries and their corresponding inhibition.
target-under-test: SIK2 (human) (UniProt Q9H0K1)
Sequence (Q9H0K1 whole entry, looked up): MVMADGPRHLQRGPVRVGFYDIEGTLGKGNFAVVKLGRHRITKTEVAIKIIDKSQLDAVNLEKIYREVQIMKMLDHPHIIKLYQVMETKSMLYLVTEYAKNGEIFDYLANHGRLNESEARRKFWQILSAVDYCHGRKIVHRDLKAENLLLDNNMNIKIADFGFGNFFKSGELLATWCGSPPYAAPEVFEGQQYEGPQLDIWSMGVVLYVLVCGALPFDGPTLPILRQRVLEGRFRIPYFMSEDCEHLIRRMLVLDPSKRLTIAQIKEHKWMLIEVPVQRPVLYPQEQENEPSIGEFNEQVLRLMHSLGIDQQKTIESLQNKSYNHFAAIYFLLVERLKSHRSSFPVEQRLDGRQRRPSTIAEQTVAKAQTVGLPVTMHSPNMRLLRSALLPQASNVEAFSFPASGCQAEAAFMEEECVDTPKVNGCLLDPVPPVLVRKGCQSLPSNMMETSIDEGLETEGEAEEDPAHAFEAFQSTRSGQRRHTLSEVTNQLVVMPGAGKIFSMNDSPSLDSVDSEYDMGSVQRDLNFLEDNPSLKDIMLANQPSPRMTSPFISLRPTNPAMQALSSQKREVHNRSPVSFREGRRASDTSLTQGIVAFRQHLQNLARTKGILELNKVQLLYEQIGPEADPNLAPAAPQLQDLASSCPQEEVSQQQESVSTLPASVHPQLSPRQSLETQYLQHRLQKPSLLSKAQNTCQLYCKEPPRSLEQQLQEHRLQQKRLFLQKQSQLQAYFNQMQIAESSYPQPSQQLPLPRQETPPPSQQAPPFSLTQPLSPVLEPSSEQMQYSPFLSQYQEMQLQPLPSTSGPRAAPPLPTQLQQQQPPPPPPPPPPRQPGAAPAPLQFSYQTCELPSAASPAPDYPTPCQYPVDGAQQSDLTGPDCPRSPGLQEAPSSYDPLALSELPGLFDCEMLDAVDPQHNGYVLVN
procedure-text: Caliper, Mobility shift assay off-chip
applied-conditions: compound 0.02 µM
Express the result in % but write the number alone.

A selection of reference data follows.
• CNC(=O)c1ccccc1Sc1ccc2c(/C=C/c3ccccn3)n[nH]c2c1 = -1.6
• Cc1ccc(Nc2nccc(N(C)c3ccc4c(C)n(C)nc4c3)n2)cc1S(N)(=O)=O = 1.3
• CNC(=O)c1cc(Oc2ccc(NC(=O)Nc3ccc(Cl)c(C(F)(F)F)c3)cc2)ccn1 = -3.8

query: Provide one value: measured inhibition of COc1cc2c(Oc3ccc4[nH]c(C)cc4c3F)ncnc2cc1OCCCN1CCCC1
result: 3.7

----------
Listed next: entries and their corresponding inhibition.
target-under-test: NEK9 (human) (UniProt Q8TD19)
Sequence (Q8TD19 whole entry, looked up): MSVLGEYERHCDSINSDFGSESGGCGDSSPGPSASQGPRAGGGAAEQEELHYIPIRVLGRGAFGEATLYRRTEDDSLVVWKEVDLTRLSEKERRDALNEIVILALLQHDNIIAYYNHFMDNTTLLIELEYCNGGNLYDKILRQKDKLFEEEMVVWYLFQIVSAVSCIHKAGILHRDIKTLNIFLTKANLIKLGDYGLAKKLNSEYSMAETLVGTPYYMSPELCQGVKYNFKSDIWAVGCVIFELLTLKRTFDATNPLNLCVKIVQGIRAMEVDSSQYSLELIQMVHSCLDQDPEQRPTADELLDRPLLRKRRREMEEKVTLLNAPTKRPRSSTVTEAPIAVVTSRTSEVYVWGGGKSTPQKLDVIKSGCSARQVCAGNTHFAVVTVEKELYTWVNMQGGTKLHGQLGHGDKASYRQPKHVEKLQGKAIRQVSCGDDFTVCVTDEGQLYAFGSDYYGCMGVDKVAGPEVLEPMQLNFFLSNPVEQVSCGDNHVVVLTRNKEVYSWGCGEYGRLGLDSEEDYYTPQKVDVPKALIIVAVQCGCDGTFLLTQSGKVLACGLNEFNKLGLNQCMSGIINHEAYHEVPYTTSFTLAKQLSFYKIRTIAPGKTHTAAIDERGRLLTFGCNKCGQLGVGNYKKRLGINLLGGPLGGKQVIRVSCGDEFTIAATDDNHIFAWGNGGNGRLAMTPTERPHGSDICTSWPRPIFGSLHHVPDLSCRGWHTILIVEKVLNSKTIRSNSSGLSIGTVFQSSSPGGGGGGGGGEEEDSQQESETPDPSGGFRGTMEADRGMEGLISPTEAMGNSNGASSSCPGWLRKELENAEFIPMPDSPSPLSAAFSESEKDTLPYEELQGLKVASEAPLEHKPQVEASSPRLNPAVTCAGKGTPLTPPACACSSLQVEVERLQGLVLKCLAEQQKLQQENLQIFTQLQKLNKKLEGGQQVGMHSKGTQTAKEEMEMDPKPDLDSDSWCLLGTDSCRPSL
procedure-text: Caliper, Mobility shift assay off-chip
applied-conditions: compound 0.02 µM
Express the result in % but write the number alone.

A selection of reference data follows.
* CNC(=O)c1cc(Oc2ccc(NC(=O)Nc3ccc(Cl)c(C(F)(F)F)c3)cc2)ccn1 | -3.7
* COc1cc2c(Oc3ccc4[nH]c(C)cc4c3F)ncnc2cc1OCCCN1CCCC1 | -3.3
* Cc1ccc(Nc2nccc(N(C)c3ccc4c(C)n(C)nc4c3)n2)cc1S(N)(=O)=O | -3.7

query: Give inhibition; test system NEK9 (human) (UniProt Q8TD19); compound CNC(=O)c1ccccc1Sc1ccc2c(/C=C/c3ccccn3)n[nH]c2c1
result: -3.7

----------
target-under-test: PRKACB (human)
procedure-text: Caliper, Mobility shift assay off-chip
applied-conditions: compound 0.2 µM
Listed next: entries and their corresponding inhibition.
Express the result in % but write the number alone.

• COc1cc2c(Oc3ccc4[nH]c(C)cc4c3F)ncnc2cc1OCCCN1CCCC1 = -7.7
• CCN(CC)CCNC(=O)c1c(C)[nH]c(/C=C2\C(=O)Nc3ccc(F)cc32)c1C = -0.1
• Cc1ccc(Nc2nccc(N(C)c3ccc4c(C)n(C)nc4c3)n2)cc1S(N)(=O)=O = -7.3

query: Provide one value: measured inhibition of CNC(=O)c1cc(Oc2ccc(NC(=O)Nc3ccc(Cl)c(C(F)(F)F)c3)cc2)ccn1
result: 3.1

----------
target-under-test: UniProt:P54753
Sequence (P54753 whole entry, looked up): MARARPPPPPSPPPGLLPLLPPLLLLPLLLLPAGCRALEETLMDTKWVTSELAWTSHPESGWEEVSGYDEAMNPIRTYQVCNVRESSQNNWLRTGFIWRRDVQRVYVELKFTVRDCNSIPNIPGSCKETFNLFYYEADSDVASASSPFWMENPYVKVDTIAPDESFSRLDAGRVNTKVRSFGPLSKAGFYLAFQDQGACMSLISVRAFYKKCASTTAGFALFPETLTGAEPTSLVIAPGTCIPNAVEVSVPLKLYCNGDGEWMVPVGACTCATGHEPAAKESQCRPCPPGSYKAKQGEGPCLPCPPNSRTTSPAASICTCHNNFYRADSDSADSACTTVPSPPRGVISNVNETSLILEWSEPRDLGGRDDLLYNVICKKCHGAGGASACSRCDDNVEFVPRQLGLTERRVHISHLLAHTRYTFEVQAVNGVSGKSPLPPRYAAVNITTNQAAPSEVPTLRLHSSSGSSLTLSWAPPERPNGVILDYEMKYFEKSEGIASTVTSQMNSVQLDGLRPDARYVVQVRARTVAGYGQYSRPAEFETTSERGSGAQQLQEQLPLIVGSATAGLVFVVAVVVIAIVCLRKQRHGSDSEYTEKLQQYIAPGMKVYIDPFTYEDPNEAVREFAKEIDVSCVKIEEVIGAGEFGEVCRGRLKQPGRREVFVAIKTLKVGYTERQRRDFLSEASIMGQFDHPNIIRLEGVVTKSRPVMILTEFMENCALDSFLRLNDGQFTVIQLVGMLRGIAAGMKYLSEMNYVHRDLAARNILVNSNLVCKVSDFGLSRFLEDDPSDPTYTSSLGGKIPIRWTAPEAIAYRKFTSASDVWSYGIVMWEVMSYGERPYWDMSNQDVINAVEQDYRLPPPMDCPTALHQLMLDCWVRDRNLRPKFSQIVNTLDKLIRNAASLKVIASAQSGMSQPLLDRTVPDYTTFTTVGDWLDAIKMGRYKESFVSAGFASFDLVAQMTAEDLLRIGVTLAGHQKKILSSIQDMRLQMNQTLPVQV
procedure-text: Caliper, Mobility shift assay off-chip
applied-conditions: compound 0.02 µM
quantity-kind: inhibition (%)
Express the result in % but write the number alone.

A selection of reference data follows.
- COc1cc2c(Oc3ccc4[nH]c(C)cc4c3F)ncnc2cc1OCCCN1CCCC1: -2.6
- Cc1ccc(Nc2nccc(N(C)c3ccc4c(C)n(C)nc4c3)n2)cc1S(N)(=O)=O: -6.1
- CNC(=O)c1cc(Oc2ccc(NC(=O)Nc3ccc(Cl)c(C(F)(F)F)c3)cc2)ccn1: -2.4

Then this compound:
query: Provide one value: measured inhibition of CNC(=O)c1ccccc1Sc1ccc2c(/C=C/c3ccccn3)n[nH]c2c1
result: -4.7

----------
Listed next: entries and their corresponding inhibition.
target-under-test: CLK3 (human)
procedure-text: Caliper, Mobility shift assay off-chip
applied-conditions: compound 0.2 µM
Please report the result as a number followed by the unit.

A selection of reference data follows.
* CCN(CC)CCNC(=O)c1c(C)[nH]c(/C=C2\C(=O)Nc3ccc(F)cc32)c1C | 9.2%
* Cc1ccc(Nc2nccc(N(C)c3ccc4c(C)n(C)nc4c3)n2)cc1S(N)(=O)=O | 9.6%
* COc1cc2c(Oc3ccc4[nH]c(C)cc4c3F)ncnc2cc1OCCCN1CCCC1 | -4.2%

Then this compound:
query: Give inhibition; test system CLK3 (human); compound CNC(=O)c1cc(Oc2ccc(NC(=O)Nc3ccc(Cl)c(C(F)(F)F)c3)cc2)ccn1
result: 5.9%

----------
target-under-test: UniProt:Q9H2G2
Sequence (Q9H2G2 whole entry, looked up): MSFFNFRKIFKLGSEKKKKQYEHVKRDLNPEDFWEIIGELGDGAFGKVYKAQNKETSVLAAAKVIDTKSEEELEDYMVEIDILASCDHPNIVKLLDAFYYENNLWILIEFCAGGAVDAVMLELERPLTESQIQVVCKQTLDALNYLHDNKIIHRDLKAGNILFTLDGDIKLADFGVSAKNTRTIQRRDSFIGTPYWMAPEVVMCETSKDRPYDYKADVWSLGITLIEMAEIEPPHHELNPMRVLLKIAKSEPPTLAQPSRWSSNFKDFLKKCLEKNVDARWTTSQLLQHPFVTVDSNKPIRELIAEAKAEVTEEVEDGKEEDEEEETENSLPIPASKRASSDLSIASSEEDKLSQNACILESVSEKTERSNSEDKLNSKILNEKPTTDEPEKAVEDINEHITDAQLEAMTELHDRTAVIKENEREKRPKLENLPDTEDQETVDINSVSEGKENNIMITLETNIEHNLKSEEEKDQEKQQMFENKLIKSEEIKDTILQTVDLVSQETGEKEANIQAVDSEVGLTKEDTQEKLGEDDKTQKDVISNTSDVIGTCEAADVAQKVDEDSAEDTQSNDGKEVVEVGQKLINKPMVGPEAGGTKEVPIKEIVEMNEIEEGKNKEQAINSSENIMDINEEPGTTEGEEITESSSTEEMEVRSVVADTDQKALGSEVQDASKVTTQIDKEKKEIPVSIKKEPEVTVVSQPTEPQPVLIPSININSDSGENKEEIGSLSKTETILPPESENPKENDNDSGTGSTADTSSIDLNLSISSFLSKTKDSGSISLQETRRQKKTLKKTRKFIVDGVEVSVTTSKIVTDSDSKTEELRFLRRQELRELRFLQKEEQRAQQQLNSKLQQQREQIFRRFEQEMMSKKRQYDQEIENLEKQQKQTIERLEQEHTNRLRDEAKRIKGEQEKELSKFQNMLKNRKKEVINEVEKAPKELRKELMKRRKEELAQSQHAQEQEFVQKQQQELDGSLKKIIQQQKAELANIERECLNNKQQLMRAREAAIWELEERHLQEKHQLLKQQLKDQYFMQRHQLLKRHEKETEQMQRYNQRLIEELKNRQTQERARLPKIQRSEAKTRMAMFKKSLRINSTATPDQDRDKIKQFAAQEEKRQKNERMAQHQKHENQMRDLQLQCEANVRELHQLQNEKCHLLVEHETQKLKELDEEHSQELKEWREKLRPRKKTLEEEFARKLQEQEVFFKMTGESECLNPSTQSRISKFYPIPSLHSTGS
procedure-text: Caliper, Mobility shift assay off-chip
applied-conditions: compound 0.2 µM
quantity-kind: inhibition (%)
Express the result in % but write the number alone.

A selection of reference data follows.
- Cc1ccc(Nc2nccc(N(C)c3ccc4c(C)n(C)nc4c3)n2)cc1S(N)(=O)=O: 12.3
- COc1cc2c(Oc3ccc4[nH]c(C)cc4c3F)ncnc2cc1OCCCN1CCCC1: 85
- CCN(CC)CCNC(=O)c1c(C)[nH]c(/C=C2\C(=O)Nc3ccc(F)cc32)c1C: 78.3

Then this compound:
query: Provide one value: measured inhibition of CNC(=O)c1cc(Oc2ccc(NC(=O)Nc3ccc(Cl)c(C(F)(F)F)c3)cc2)ccn1
result: 10.6

----------
target-under-test: UniProt O94806
Sequence (O94806 whole entry, looked up): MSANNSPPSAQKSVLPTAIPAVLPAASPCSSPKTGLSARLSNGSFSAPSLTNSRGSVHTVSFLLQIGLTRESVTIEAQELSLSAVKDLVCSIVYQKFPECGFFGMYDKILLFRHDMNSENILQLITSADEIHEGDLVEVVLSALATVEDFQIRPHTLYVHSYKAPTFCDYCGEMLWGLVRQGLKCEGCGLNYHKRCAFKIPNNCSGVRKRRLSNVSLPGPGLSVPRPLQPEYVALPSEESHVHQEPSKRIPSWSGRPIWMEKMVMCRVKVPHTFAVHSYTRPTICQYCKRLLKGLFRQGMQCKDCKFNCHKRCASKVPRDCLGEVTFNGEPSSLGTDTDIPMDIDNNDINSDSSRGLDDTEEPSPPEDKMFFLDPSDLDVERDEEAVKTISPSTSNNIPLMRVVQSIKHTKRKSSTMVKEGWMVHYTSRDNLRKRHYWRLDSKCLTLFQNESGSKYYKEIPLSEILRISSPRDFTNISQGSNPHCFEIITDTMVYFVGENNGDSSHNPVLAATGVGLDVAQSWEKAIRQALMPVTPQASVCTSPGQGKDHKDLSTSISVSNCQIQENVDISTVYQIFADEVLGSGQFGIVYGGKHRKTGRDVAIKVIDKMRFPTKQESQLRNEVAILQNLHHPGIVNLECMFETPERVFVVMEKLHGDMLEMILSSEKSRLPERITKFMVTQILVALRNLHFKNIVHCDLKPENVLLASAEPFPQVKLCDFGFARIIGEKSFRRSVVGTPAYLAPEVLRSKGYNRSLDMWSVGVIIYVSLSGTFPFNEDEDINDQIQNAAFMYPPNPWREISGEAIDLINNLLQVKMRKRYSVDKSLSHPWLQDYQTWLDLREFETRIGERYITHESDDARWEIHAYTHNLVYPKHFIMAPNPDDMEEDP
procedure-text: Caliper, Mobility shift assay off-chip
applied-conditions: compound 0.02 µM
Listed next: entries and their corresponding inhibition.
Express the result in % but write the number alone.

A selection of reference data follows.
• CNC(=O)c1ccccc1Sc1ccc2c(/C=C/c3ccccn3)n[nH]c2c1 = -1.6
• CNC(=O)c1cc(Oc2ccc(NC(=O)Nc3ccc(Cl)c(C(F)(F)F)c3)cc2)ccn1 = -0.7
• COc1cc2c(Oc3ccc4[nH]c(C)cc4c3F)ncnc2cc1OCCCN1CCCC1 = -1

Then this molecule:
query: Provide one value: measured inhibition of Cc1ccc(Nc2nccc(N(C)c3ccc4c(C)n(C)nc4c3)n2)cc1S(N)(=O)=O
result: -1.6

----------
target-under-test: MARK1 (human)
procedure-text: Caliper, Mobility shift assay off-chip
applied-conditions: compound 0.2 µM
quantity-kind: inhibition (%)
Express the result in % but write the number alone.

A selection of reference data follows.
- CCN(CC)CCNC(=O)c1c(C)[nH]c(/C=C2\C(=O)Nc3ccc(F)cc32)c1C: 68.8
- CNC(=O)c1cc(Oc2ccc(NC(=O)Nc3ccc(Cl)c(C(F)(F)F)c3)cc2)ccn1: 0.9
- Cc1ccc(Nc2nccc(N(C)c3ccc4c(C)n(C)nc4c3)n2)cc1S(N)(=O)=O: 3

Then this molecule:
query: Provide one value: measured inhibition of COc1cc2c(Oc3ccc4[nH]c(C)cc4c3F)ncnc2cc1OCCCN1CCCC1
result: 2.7

----------
target-under-test: MKNK2 (human)
procedure-text: Caliper, Mobility shift assay off-chip
applied-conditions: compound 0.2 µM
quantity-kind: inhibition (%)
Express the result in % but write the number alone.

- CCN(CC)CCNC(=O)c1c(C)[nH]c(/C=C2\C(=O)Nc3ccc(F)cc32)c1C: 3.2

query: Provide one value: measured inhibition of COc1cc2c(Oc3ccc4[nH]c(C)cc4c3F)ncnc2cc1OCCCN1CCCC1
result: 1.2

query: Provide one value: measured inhibition of Cc1ccc(Nc2nccc(N(C)c3ccc4c(C)n(C)nc4c3)n2)cc1S(N)(=O)=O
result: 1.5

query: Provide one value: measured inhibition of CNC(=O)c1cc(Oc2ccc(NC(=O)Nc3ccc(Cl)c(C(F)(F)F)c3)cc2)ccn1
result: 48.3

----------
Listed next: entries and their corresponding inhibition.
target-under-test: MAPK7 (human) (UniProt Q13164)
procedure-text: Caliper, Mobility shift assay off-chip
applied-conditions: compound 0.02 µM
Express the result in % but write the number alone.

A selection of reference data follows.
- COc1cc2c(Oc3ccc4[nH]c(C)cc4c3F)ncnc2cc1OCCCN1CCCC1: -8.6
- CNC(=O)c1ccccc1Sc1ccc2c(/C=C/c3ccccn3)n[nH]c2c1: -9.5

query: Provide one value: measured inhibition of Cc1ccc(Nc2nccc(N(C)c3ccc4c(C)n(C)nc4c3)n2)cc1S(N)(=O)=O
result: -7.8

query: Provide one value: measured inhibition of CNC(=O)c1cc(Oc2ccc(NC(=O)Nc3ccc(Cl)c(C(F)(F)F)c3)cc2)ccn1
result: -9.1

----------
target-under-test: NTRK1 (human)
procedure-text: Caliper, Mobility shift assay off-chip
applied-conditions: compound 0.02 µM
quantity-kind: inhibition (%)
Express the result in % but write the number alone.

A selection of reference data follows.
- CNC(=O)c1cc(Oc2ccc(NC(=O)Nc3ccc(Cl)c(C(F)(F)F)c3)cc2)ccn1: 7.9
- Cc1ccc(Nc2nccc(N(C)c3ccc4c(C)n(C)nc4c3)n2)cc1S(N)(=O)=O: 7
- COc1cc2c(Oc3ccc4[nH]c(C)cc4c3F)ncnc2cc1OCCCN1CCCC1: 3.4

Then this molecule:
query: Provide one value: measured inhibition of CNC(=O)c1ccccc1Sc1ccc2c(/C=C/c3ccccn3)n[nH]c2c1
result: 21.6

----------
target-under-test: PRKCE (human)
procedure-text: Caliper, Mobility shift assay off-chip
applied-conditions: compound 0.02 µM
quantity-kind: inhibition (%)
Express the result in % but write the number alone.

• CNC(=O)c1cc(Oc2ccc(NC(=O)Nc3ccc(Cl)c(C(F)(F)F)c3)cc2)ccn1 = 0.4

query: Provide one value: measured inhibition of Cc1ccc(Nc2nccc(N(C)c3ccc4c(C)n(C)nc4c3)n2)cc1S(N)(=O)=O
result: 5.8

query: Provide one value: measured inhibition of COc1cc2c(Oc3ccc4[nH]c(C)cc4c3F)ncnc2cc1OCCCN1CCCC1
result: 7.2

query: Provide one value: measured inhibition of CNC(=O)c1ccccc1Sc1ccc2c(/C=C/c3ccccn3)n[nH]c2c1
result: -4.2
